procedure-text: Acute toxicity (mouse)
setup-conditions: in vivo, sc, read-out: Akute Toxizität (Maus): LD50
assay-metric: LD50

Consider the molecule NCC(=O)OC[C@@H](NC(=O)C(F)F)[C@H](O)c1ccc([N+](=O)[O-])cc1 and give its measured LD50.
2000 to 4000 mg/kg
